# STUDY TARGET: T1, recombinant biotinylated CD71 extracellular domain (Sino Biologics) with an N-terminal 6His tag (human, UniProt P02786 89-760, biotinylated (sites not given))
# T1 construct: extracellular domain; also called hCD71; huCD71
# T1 sequence (P02786 other isoform, or with tags, fused parts or gaps): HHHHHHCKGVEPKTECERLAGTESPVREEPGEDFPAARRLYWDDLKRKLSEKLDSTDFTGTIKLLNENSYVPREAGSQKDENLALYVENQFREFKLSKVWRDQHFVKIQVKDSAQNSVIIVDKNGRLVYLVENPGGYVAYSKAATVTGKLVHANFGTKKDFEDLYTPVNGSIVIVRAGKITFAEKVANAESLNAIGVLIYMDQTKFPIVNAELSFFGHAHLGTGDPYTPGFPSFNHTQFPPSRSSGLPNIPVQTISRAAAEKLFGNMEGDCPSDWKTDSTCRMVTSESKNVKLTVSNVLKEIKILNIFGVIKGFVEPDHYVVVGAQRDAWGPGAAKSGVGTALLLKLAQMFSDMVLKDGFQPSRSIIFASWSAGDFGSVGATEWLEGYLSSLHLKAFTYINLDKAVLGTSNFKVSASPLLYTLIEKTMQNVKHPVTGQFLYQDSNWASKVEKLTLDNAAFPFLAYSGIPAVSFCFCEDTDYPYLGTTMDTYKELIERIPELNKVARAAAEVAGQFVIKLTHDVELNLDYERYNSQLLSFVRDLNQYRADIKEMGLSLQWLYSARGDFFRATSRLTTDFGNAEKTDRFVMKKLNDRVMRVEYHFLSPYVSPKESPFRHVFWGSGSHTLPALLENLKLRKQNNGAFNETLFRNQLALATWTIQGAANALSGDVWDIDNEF
# ASSAY TEXT: screening ELISA, ratio
PROPERTY LABEL: hCD71:HSA
// return a plain number; no unit text

Previously resolved entries follow.
Exam item: Identify measured hCD71:HSA corresponding to SEQ ID NO 212 (designed binder, FN3 domain) MLPAPKNLVVSRVTEDSARLSWTAPDAAFDSFIIEYWEQIGVGEAIVLTVPGSERSYDLTGLKPGTEYWVGIYGVKGGLLSSPLSAIFTT
Marked response: 1110

Exam item: Complete the entry with hCD71:HSA for SEQ ID NO 243 (designed binder, FN3 domain) MLPAPKNLVVSRVTEDSARLSWTAPDAAFDSFAIPYYEWVNHGEAIVLTVPGSERSYDLTGLKPGTEYPVGIDGVKGGGPSWPLSAIFTT
Marked response: 237

Others:
Exam item: Quote hCD71:HSA reported for SEQ ID NO 258 (designed binder, FN3 domain) MLPAPKNLVVSRVTEDSARLSWTAPDAAFDSFFIPYAEPSPTGEAIVLTVPGSERSYDLTGLKPGTEYDVWIEGVKGGVLSWPLSAIFTT please.
Marked response: 98

Exam item: Note hCD71:HSA for the binder shown: SEQ ID NO 166 (designed binder, FN3 domain) MLPAPKNLVVSRVTEDSARLSWTAPDAAFDSFTILYNEIQNVGEAIVLTVPGSERSYDLTGLKPGTEYDVWIEGVKGGELSWPLSAIFTT
Marked response: 480

Exam item: Look up hCD71:HSA of SEQ ID NO 91 (designed binder, FN3 domain) MLPAPKNLVVSRVTEDSARLSWTAPDAAFDSFVIEYWERTQPGEAIVLTVPGSERSYDLTGLKPGTEYDVWISGVKGGKWSEPLSAIFTT and report it.
Marked response: 800
